As shown below, each of these molecules has a reported selectivity ratio value.
- assay-protocol: Selectivity index, ratio of IC50 for mouse NIH/3T3 cells to IC50 for human A549 cells
- Type: toxicity
- condition-description: NIH/3T3 cells versus A549 cells, read-out: Ratio IC50

1. O=C(CSc1nnc(COc2ccc3c(c2)CCCC3)o1)Nc1nccs1 | > 1.76
2. O=C(CSc1nnc(COc2ccc3c(c2)CCCC3)o1)Nc1nc2ccccc2s1 | 0.39
3. CCOc1ccc2nc(NC(=O)CSc3nnc(COc4ccc5c(c4)CCCC5)o3)sc2c1 | > 1.42

Field: next molecule
Inquiry: Need selectivity ratio of Cc1ccc2nc(NC(=O)CSc3nnc(COc4ccc5c(c4)CCCC5)o3)sc2c1 , thanks.
Reply text: > 1.92

* * *

- system-name: RAC-alpha serine/threonine-protein kinase (Rattus norvegicus, UniProt P47196)
- Sequence (P47196 whole entry): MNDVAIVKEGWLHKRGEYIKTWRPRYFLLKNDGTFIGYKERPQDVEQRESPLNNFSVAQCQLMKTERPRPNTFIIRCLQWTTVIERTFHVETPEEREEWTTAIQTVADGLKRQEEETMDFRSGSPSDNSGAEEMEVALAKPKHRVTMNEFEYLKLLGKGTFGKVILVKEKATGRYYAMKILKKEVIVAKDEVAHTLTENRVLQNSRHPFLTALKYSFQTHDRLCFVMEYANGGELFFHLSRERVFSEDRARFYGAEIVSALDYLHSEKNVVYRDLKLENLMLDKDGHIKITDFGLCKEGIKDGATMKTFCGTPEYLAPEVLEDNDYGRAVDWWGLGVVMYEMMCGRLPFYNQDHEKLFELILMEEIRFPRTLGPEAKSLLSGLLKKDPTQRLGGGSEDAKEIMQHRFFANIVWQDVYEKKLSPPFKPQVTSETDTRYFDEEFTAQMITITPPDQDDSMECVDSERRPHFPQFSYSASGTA
- assay-protocol: Inhibition of Akt in rat C6 cells after 24 hrs by ELISA
quantity-measured: IC50 (µM)
Express it in µM; write the number only.

1. O=C(CSc1nnc(COc2ccc3c(c2)CCCC3)o1)Nc1ncc([N+](=O)[O-])s1 | 44.5
2. CCn1c(-c2nonc2N)nc2c(C#CC(C)(C)O)ncc(OC[C@H]3CCCNC3)c21 | 6.97
3. COc1ccc2nc(NC(=O)CSc3nnc(COc4ccc5c(c4)CCCC5)o3)sc2c1 | 2.6

Next:
Inquiry: Given the molecule O=C(CSc1nnc(COc2ccc3c(c2)CCCC3)o1)Nc1nc2ccc(F)cc2s1 , what is its reported IC50?
Reply text: 165

* * *

- assay-protocol: Selectivity index, ratio of IC50 for mouse NIH/3T3 cells to IC50 for human A549 cells
- Assay type: toxicity
- condition-description: NIH/3T3 cells versus A549 cells, read-out: Ratio IC50
quantity-measured: selectivity ratio
Lab note: write the figure by itself, no unit.

See these solved cases before continuing.
1. O=C(CSc1nnc(COc2ccc3c(c2)CCCC3)o1)Nc1nc2ccc(Cl)cc2s1 | 0.94
2. COc1ccc2nc(NC(=O)CSc3nnc(COc4ccc5c(c4)CCCC5)o3)sc2c1 | 2.4
3. O=C(CSc1nnc(COc2ccc3c(c2)CCCC3)o1)Nc1nc2ccc([N+](=O)[O-])cc2s1 | 1.44

# next compound below
Inquiry: Which measured selectivity ratio value corresponds to O=C(CSc1nnc(COc2ccc3c(c2)CCCC3)o1)Nc1nc2ccc(F)cc2s1 ?
Reply text: 3.18

* * *

- System: C6
- assay-protocol: Cytotoxicity against rat C6 cells assessed as decrease in cell viability after 24 hrs by MTT assay
- Format: functional, cell-based
- condition-description: C6, 24 h
quantity-measured: log10(IC50) (log10 of the value in µM)
Please note: log10 values; quantity IC50; unit µM.

Worked cases, answers included:
1) COc1ccc2nc(NC(=O)CSc3nnc(COc4ccc5c(c4)CCCC5)o3)sc2c1 | 0.67
2) O=C(CSc1nnc(COc2ccc3c(c2)CCCC3)o1)Nc1nc2ccc(F)cc2s1 | 1.95
3) O=C(CSc1nnc(COc2ccc3c(c2)CCCC3)o1)Nc1nc2ccc(Cl)cc2s1 | 2.37
4) O=C(CSc1nnc(COc2ccc3c(c2)CCCC3)o1)Nc1nc2ccc([N+](=O)[O-])cc2s1 | 1.99
5) CCn1c(-c2nonc2N)nc2c(C#CC(C)(C)O)ncc(OC[C@H]3CCCNC3)c21 | 1.16

Inquiry: Entry under review: CCOc1ccc2nc(NC(=O)CSc3nnc(COc4ccc5c(c4)CCCC5)o3)sc2c1 . Reported log10(IC50)?
Reply text: 1.97

* * *

- assay-protocol: Selectivity index, ratio of IC50 for mouse NIH/3T3 cells to IC50 for rat C6 cells
- Format: toxicity
- condition-description: NIH/3T3 cells versus C6 cells, read-out: Ratio IC50
quantity-measured: selectivity ratio
Number, no unit, nothing else.

For orientation, consider the following solved cases.
1. COc1ccc2nc(NC(=O)CSc3nnc(COc4ccc5c(c4)CCCC5)o3)sc2c1 | 20.4
2. O=C(CSc1nnc(COc2ccc3c(c2)CCCC3)o1)Nc1nc2ccccc2s1 | 0.63
3. O=C(CSc1nnc(COc2ccc3c(c2)CCCC3)o1)Nc1nc2ccc([N+](=O)[O-])cc2s1 | 3.41

Inquiry: May I ask what selectivity ratio has been recorded for O=C(CSc1nnc(COc2ccc3c(c2)CCCC3)o1)Nc1nc2ccc(Cl)cc2s1 ?
Reply text: 1.04

Inquiry: Please look up its selectivity ratio: O=C(CSc1nnc(COc2ccc3c(c2)CCCC3)o1)Nc1nc2ccc(F)cc2s1
Reply text: 3.27

* * *

- Test system: C6
- assay-protocol: Cytotoxicity against rat C6 cells assessed as decrease in cell viability after 24 hrs by MTT assay
- Assay type: functional, cell-based
- condition-description: C6, 24 h
Each entry below carries its recorded pIC50.
# pIC50 = -log10(concentration in molar units)

1) O=C(CSc1nnc(COc2ccc3c(c2)CCCC3)o1)Nc1nccs1 | 3.67
2) O=C(CSc1nnc(COc2ccc3c(c2)CCCC3)o1)Nc1nc2ccccc2s1 | 3.81
3) Cc1ccc2nc(NC(=O)CSc3nnc(COc4ccc5c(c4)CCCC5)o3)sc2c1 | 3.97

We now examine a further molecule.
Inquiry: # get_value(readout= pIC50, system= C6) for O=C(CSc1nnc(COc2ccc3c(c2)CCCC3)o1)Nc1ncc([N+](=O)[O-])s1
Reply text: 4.18

* * *

- assay-protocol: Selectivity index, ratio of IC50 for mouse NIH/3T3 cells to IC50 for rat C6 cells
- Assay type: toxicity
- condition-description: NIH/3T3 cells versus C6 cells, read-out: Ratio IC50
quantity-measured: selectivity ratio

1) CCOc1ccc2nc(NC(=O)CSc3nnc(COc4ccc5c(c4)CCCC5)o3)sc2c1 | > 4.32
2) O=C(CSc1nnc(COc2ccc3c(c2)CCCC3)o1)Nc1nccs1 | > 1.89
3) O=C(CSc1nnc(COc2ccc3c(c2)CCCC3)o1)Nc1ncc([N+](=O)[O-])s1 | > 6.04

Then this molecule:
Inquiry: GET /values?readout=selectivity ratio&item= Cc1ccc2nc(NC(=O)CSc3nnc(COc4ccc5c(c4)CCCC5)o3)sc2c1
Reply text: > 3.72
